Assayed system: T1, cynoTIGIT-mFc (fusion protein of cynoTIGIT extracellular domain and mouse IgG2a Fc fragment) (cynomolgus)
T1 construct: also called monkey TIGIT; cynomolgus TIGIT-mFc fusion protein
T1 sequence (chain, as listed by the source limits assumed): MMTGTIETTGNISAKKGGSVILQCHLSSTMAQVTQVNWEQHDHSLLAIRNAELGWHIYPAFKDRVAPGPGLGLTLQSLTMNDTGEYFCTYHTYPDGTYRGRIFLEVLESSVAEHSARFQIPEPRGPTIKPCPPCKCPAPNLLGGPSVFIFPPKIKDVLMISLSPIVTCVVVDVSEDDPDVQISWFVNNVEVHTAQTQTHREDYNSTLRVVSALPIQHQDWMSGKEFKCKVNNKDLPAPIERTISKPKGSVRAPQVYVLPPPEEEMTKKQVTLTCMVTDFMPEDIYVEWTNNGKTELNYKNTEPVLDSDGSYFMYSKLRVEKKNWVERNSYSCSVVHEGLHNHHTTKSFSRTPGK
Experiment: SPR (Biacore T200), antibody held by Fc affinity capture, cynoTIGIT-mFc in mobile phase, 1:1 Langmuir fit
Measurement type: koff

Item h1710-01 (antibody, human IgG4 S228P, kappa, V domains shown, also called humanized TIGIT antibody h1710-01) VH: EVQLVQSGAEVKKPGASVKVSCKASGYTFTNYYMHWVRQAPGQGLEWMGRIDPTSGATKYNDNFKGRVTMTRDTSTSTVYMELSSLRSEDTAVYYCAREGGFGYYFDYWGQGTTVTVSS VL: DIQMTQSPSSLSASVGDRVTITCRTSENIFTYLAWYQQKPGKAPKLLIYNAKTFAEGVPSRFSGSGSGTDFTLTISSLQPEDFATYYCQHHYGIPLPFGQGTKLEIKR has what recorded koff?
0.000371 s⁻¹

Recorded values, source patent US20200255516A1.
